Attribution: ChEMBL document CHEMBL1201862

tested on: KM-20L2; test: NCI tumour cell line growth inhibition, 48 h
Activity calls are given as the source filed them. Rule as the data show it: active = GI50 up to about 1.1 µM and inactive = higher.
Classes used: y for active, n for inactive

Compound | Group Label
C[C@@]1(CBr)C[C@@](C)(/C=C/Cl)[C@@H](Cl)C[C@H]1Cl | n
O=C(c1cc2ccccc2o1)N(Cc1ccccc1)c1ccccc1 | n
O=C1CCC2(c3ccccc3)Nc3cc(Cl)ccc3N12 (stereo not given) | n
CCOC(=O)C(CC(C)C)NC(=O)C(N)Cc1ccc(N(CCCl)CCCl)cc1 (stereo not given) | n
COc1cc(OC)c2c(=O)cc(-c3ccc(OC)c(OC)c3OC)oc2c1 | n
O=C(Nc1ccc([N+](=O)[O-])cc1)C1C(=O)C(=O)N(c2ccc([N+](=O)[O-])cc2)C1=O (stereo not given) | n
Cc1cc2c(=O)n(-c3ccc(F)cc3)c(C)nc2c(C(=O)O)c1C | n
Cc1nnc(N/N=C2\C(=O)Nc3ccccc32)n1N | n
O=c1oc2cc(O)ccc2c2[nH]c3cc(O)ccc3c12 | n
Cc1n(CC(C)C)c2c([n+]1C)C(=O)c1ccccc1C2=O | y
CN1CCc2c1nc(-c1ccc([N+](=O)[O-])cc1)c1c2N(C)CC1 | n
COC(=O)N/N=c1\cc(C(=O)Nc2ccc(C)c(C)c2)oc2cc(O)ccc12 | n
CCOc1ccc(OP2(=O)NC(=O)C=C(C)N2)cc1 (stereo not given) | n
CC1CCC(=O)NCCCCC(=O)N1 (stereo not given) | n
O=C(NC1CCCCCC1)C1C(=O)N(C2CCCCCC2)C(=O)/C1=N\O (stereo not given) | n
CCOC1CC2OC(=O)C1C=C2C(=O)OC (stereo not given) | n
CCN(CC)C(=O)C(C)n1cc(C)c(=O)[nH]c1=O (stereo not given) | n
O=C(c1ccc(F)cc1)c1cccc(C(=O)c2ccc(F)cc2)n1 | n
CC(C)(C)c1cc(CCCCCCCC2(CCCCCCCc3cc(C(C)(C)C)cc(C(C)(C)C)c3)OC(COCCOCCCCCC#N)C(COCCOCCCCCC#N)O2)cc(C(C)(C)C)c1 (stereo not given) | n
Cc1cc(Br)cc(C)c1NC(=O)C(=O)C(C(=O)c1ccc(Cl)c(Cl)c1)C1OC(=O)c2ccccc21 (stereo not given) | n

###

tested on: A498; test: NCI tumour cell line growth inhibition, 48 h
Active and inactive are the calls of the source. No stated cut-off is given here; in the data, active = GI50 up to about 1.1 µM and inactive = higher.
Reported GI50 values for a set of compounds
Measurement Name: GI50

Structure Smiles String | Result
COc1cc(/N=N/c2cccc(S(N)(=O)=O)c2)c2ccccc2c1N | 19.7 µM (inactive)
COC(=O)c1csc(-c2nc(CCNC(=O)OC(C)(C)C)sc2Br)n1 | > 100 µM (inactive)
CC1(C)Cc2cc(C(=O)O)c3c(c2C1=O)COCC3 | > 100 µM (inactive)
CCOC(=O)CNC1=NNS(=O)(=O)c2ccccc21 | 20.8 µM (inactive)
O=c1[nH]c2cccc([N+](=O)[O-])c2c(=O)n1-c1ccc(Cl)cc1 | 13.9 µM (inactive)

###

Each entry below carries its reported GI50.
system: K562; assay: NCI tumour cell line growth inhibition, 48 h
Calls of active or inactive are those of the source. Cut-off read from the data, not from the text of the source: active = GI50 up to about 1.1 µM and inactive = higher.
Measurement Name: GI50

Compound | Result
Fc1cccc(C2SCc3nc4cc5ccccc5cc4n32)c1 (centres undefined) | > 100 µM (inactive)
O=C1CCC2(c3ccccc3)Nc3cc(Cl)ccc3N12 (centres undefined) | 32 µM (inactive)
O=C1c2c(O)cccc2C(C2OC(CO)C(O)C(O)C2O)c2cc(CO)cc(O)c21 (centres undefined) | > 100 µM (inactive)
COc1ccc(/C=C2\CC3C4CC=C5C[C@@H](N6CCCC6)CC[C@]5(C)C4CC[C@]3(C)[C@H]2O)cc1OC (some centres undefined) | 8.09 µM (inactive)
CS(=O)(=O)c1nc(-c2cc3c(c(S(C)(=O)=O)n2)CCC3)cc2c1CCCC2 | > 100 µM (inactive)
C=C1C(=O)O[C@H]2[C@H](OC(C)=O)[C@@H](C)CCC/C(C)=C/CC[C@@]3(C)O[C@@H]3C[C@@H]12 | 3.03 µM (inactive)
COc1cc(Cn2c3ccccc3c3cc(C)c4c(c32)C=CC(C)(CCC=C(C)C)O4)cc2c1[nH]c1ccccc12 (centres undefined) | > 100 µM (inactive)
CC(=O)CCCCCCCCCCCC[C@@H]1CC[C@H](C)[C@H](O)N1 | > 100 µM (inactive)
C/C=C1\C=C(OC)CN(CCc2c[nH]c3ccccc23)C1 | 72.3 µM (inactive)

###

GI50: recorded values
system: IGROV-1; test: NCI tumour cell line growth inhibition, 48 h
Activity calls are given as the source filed them. Cut-off read from the data, not from the text of the source: active = GI50 up to about 1.1 µM and inactive = higher.
Measurement Name: GI50

Molecule | Result
NNC(=O)C(=O)N/N=C(\CCCC(=O)Nc1ccc(Cl)cc1)CC(=O)c1ccc(F)cc1 | > 100 µM (inactive)
CC(C)(C)c1cc(CCCCCCCC2(CCCCCCCc3cc(C(C)(C)C)cc(C(C)(C)C)c3)OC(COCCOCCCCCC#N)C(COCCOCCCCCC#N)O2)cc(C(C)(C)C)c1 (configuration not stated) | > 100 µM (inactive)
NC(=O)C(=O)N/N=C1/c2ccccc2CC1C1(O)C(=O)Nc2c(Cl)cc(Cl)cc21 (configuration not stated) | > 100 µM (inactive)
Cc1cc2ccccc2n1CC(=O)NCC(C)C | > 100 µM (inactive)
CC(C)(C)C1CCC2c3c([nH]c4ccccc34)C3C(=O)N(c4ccccc4)C(=O)C3C2C1 (configuration not stated) | 11.1 µM (inactive)
CN1C(CC(O)c2ccccc2)CCCC1CC(O)(c1ccccc1)c1ccccc1 (configuration not stated) | 17.2 µM (inactive)
COc1ccc2nc3c(c(N)c2c1)C1CCC3C1(C)C (configuration not stated) | 42.9 µM (inactive)

###

system: ACHN; assay: NCI tumour cell line growth inhibition, 48 h
Calls of active or inactive are those of the source. No stated cut-off is given here; in the data, active = GI50 up to about 1.1 µM and inactive = higher.
Listed here: items and their measured GI50.
Measurement Name: GI50

Compound | Measurement Name | Result
C=C1C(=O)O[C@H]2C[C@@H]1[C@@H](O)[C@H](O)[C@@H](C)CCCC(C)=CCC[C@@]2(C)O | GI50 | 14.6 µM (inactive)
Cc1c2c(OCC3CCCCO3)nn(C)c(=O)c2c(C)n1-c1ccccc1 (configuration not stated) | GI50 | 16.5 µM (inactive)
CC(=O)C1C(=O)C(C(C)=O)C2C3C=CC(C3)C12 (configuration not stated) | GI50 | > 100 µM (inactive)
Cc1ccccc1-n1c(=O)nc2n(-c3ccc(C(C)(C)C)cc3)c3ccccc3cc-2c1=O | GI50 | 32.5 µM (inactive)
COc1cc2c(cc1O)[C@]1(Cc3ccc4c(c3C1=O)OCO4)N(C)CC2 | GI50 | > 100 µM (inactive)
O=C1C(Cl)=C(Cl)C(=O)N1c1ccccc1Cl | GI50 | > 100 µM (inactive)
CCN(CC)CCNC(=O)c1cccc2cc3ccccc3nc12 | GI50 | 3.45 µM (inactive)
CC(=O)N(C(=O)CC(=O)N1N=C(c2ccccc2)C(/N=N/c2ccccc2[N+](=O)[O-])C1=O)c1ccc(Cl)cc1 (configuration not stated) | GI50 | > 10 µM (inactive)
COc1ccccc1C#C/C=C\C#Cc1ccccc1C#N | GI50 | 13.9 µM (inactive)
Cc1c(C)c2ccc(O)cc2[nH]c1=O | GI50 | > 100 µM (inactive)
CC(=O)O[C@H]1C(=O)[C@@]2(C)C(C(OC(=O)c3ccccc3)[C@]3(O)CC(OC(=O)C(O)C(NC(=O)c4cccc(Cl)c4)c4ccccc4)C(C)=C1C3(C)C)[C@]1(OC(C)=O)CO[C@@H]1C[C@@H]2O (some centres not stated) | GI50 | 1.82 µM (inactive)
COC(=O)C1=CO[C@@H](OC2OC(CO)C(O)C(O)C2O)[C@H]2[C@@H](C)[C@@H](O)[C@@H](O)[C@@H]12 (some centres not stated) | GI50 | > 100 µM (inactive)
COc1cc(/N=N/c2cccc(S(N)(=O)=O)c2)c2ccccc2c1N | GI50 | 15.5 µM (inactive)
CCOC(=O)c1c(NC(=S)NCc2ccccc2)sc2c1CCN(C)C2 | GI50 | 89.5 µM (inactive)
COc1cc(S(=O)(=O)Nc2ccc(-c3csc(/N=C\c4ccccc4O)n3)cc2)ccc1Cl | GI50 | 62.2 µM (inactive)
COc1ccc2nc3c(c(N)c2c1)C1CCC3C1(C)C (configuration not stated) | GI50 | > 100 µM (inactive)
CC(C)=CCC[C@@H](C)C1=C(O)C(=O)C(C)=C(c2c(I)c(=O)n(C)c(=O)n2C)C1=O | GI50 | > 100 µM (inactive)
O=C1Nc2ccccc2/C1=N/Nc1nc(-c2ccc(Cl)c(Cl)c2)cs1 | GI50 | 87.1 µM (inactive)
CCOc1ccc(OP2(=O)NC(=O)C=C(C)N2)cc1 (configuration not stated) | GI50 | 90.8 µM (inactive)
Cc1cc2ncn(CC(=O)O)c2cc1C | GI50 | > 100 µM (inactive)
CC12C(=O)CC(CC1=O)C2(C)C | GI50 | > 100 µM (inactive)
COC(=O)c1csc(-c2nc(CCNC(=O)OC(C)(C)C)sc2Br)n1 | GI50 | > 100 µM (inactive)
